Test system: U2OS
Assay: Multiplex assay against U2OS
Format: toxicity, cell-based
Details: human, 24 h, 1 µM, compound concentration 1 uM, replicate 2
Measured Population Fragmented Nuclei (%), listed per entry for reference.

molecule	tested.on	Population Fragmented Nuclei (%)
S=C(NCCCc1c[nH]cn1)NCCCN(Cc1ccc(Cl)c(Cl)c1)c1ccc(Br)cn1	U2OS	19
CCOC(=O)c1c(C)[nH]c2ccc3c(c12)CN1CCc2cc(OC)ccc2C1O3 (stereo not given)	U2OS	9
O=C(Nc1ccc(-c2ccnc(Nc3ccc(N4CCOCC4)cc3)n2)cc1)[C@@H]1CCCN1	U2OS	7
O=C1N/C(=N/c2ccccc2F)S/C1=C\c1ccc(C(=O)O)cc1	U2OS	7
CN1C2CCC1CC(OC(c1ccc(F)cc1)c1ccc(F)cc1)C2.Cl (stereo not given)	U2OS	3
O=C(Nc1cccnn1)N1CCC(=Cc2cccc(Oc3ccc(C(F)(F)F)cn3)c2)CC1	U2OS	10
CCN1CCN(Cc2ccc(Nc3ncc(F)c(-c4cc(F)c5nc(C)n(C(C)C)c5c4)n3)nc2)CC1.CS(=O)(=O)O	U2OS	20
CNc1cc(Oc2cc(C(=O)Nc3cc(N4CCN(C)CC4)cc(C(F)(F)F)c3)ccc2C)ncn1	U2OS	16
CCN1CCN(c2ccc(Nc3cc(N(C)C(=O)Nc4c(Cl)c(OC)cc(OC)c4Cl)ncn3)cc2)CC1 [INFIGRATINIB]	U2OS	30
Cc1cc(C)c(S(=O)(=O)N(Cc2ccc(-c3cccc(S(C)(=O)=O)c3)cc2)Cc2ccc(C(F)(F)F)o2)c(C)c1	U2OS	14
CCn1cc(-c2ccnc3[nH]c(-c4cccc(CN(C)C)c4)cc23)c(-c2ccc(NC(=O)N(C)C)cc2)n1 [GSK-1070916]	U2OS	8
CN1CCN(C(=O)C(C)(C)c2ccc(C(=O)Nc3cn4cc(-c5cc(C(C)(C)C)cc(C(C)(C)C)c5)ccc4n3)cc2)CC1 [T3-CLK-N]	U2OS	6
CCOc1cc(C(=O)N2CCC(N3CCN(C)CC3)CC2)ccc1Nc1ncc2c(n1)N(C1CCCC1)c1ccccc1C(=O)N2C	U2OS	16
CCNc1cc(N[C@H]2CC[C@H](O)CC2)nc(Nc2ccc3c(ccn3Cc3ccccc3)c2)n1	U2OS	14
C=CCn1c(=O)c2cnc(Nc3ccc(N4CCN(C)CC4)cc3)nc2n1-c1cccc(C(C)(C)O)n1 [ADAVOSERTIB]	U2OS	22
CCCn1c(=O)c2[nH]c(-c3cnn(Cc4cccc(C(F)(F)F)c4)c3)nc2n(CC)c1=O [GS 6201]	U2OS	5
CN[C@@H]1C[C@H]2O[C@@](C)([C@@H]1OC)n1c3ccccc3c3c4c(c5c6ccccc6n2c5c31)C(=O)NC4 [STAUROSPORINE]	U2OS	58
Cc1cn(-c2cc(NC(=O)c3ccc(C)c(Nc4nccc(-c5cccnc5)n4)c3)cc(C(F)(F)F)c2)cn1 [NILOTINIB]	U2OS	14
CN(C)C(=O)C(CCN1CCC(O)(c2ccc(Cl)cc2)CC1)(c1ccccc1)c1ccccc1.Cl [LOPERAMIDE HYDROCHLORIDE]	U2OS	5
O=C(Nc1ccc(-n2nc(-c3cccnc3)cc2C(F)(F)F)cn1)c1ccc(-c2ccccc2)c(F)c1 [BI 2049]	U2OS	7

* * *

Item-by-item account of Population Membrane Permeable-Phenotype (%)
Tested on: Fibroblast
Assay: Multiplex assay against human fibroblast
Type: toxicity, cell-based
Conditions: 24 h, 10 µM, compound concentration 10 uM, replicate 2
experimental.readout: Population Membrane Permeable-Phenotype (%)

compound	units.label	readout.number
CCCS(=O)(=O)Nc1ccc(F)c(C(=O)c2c[nH]c3ncc(Cl)cc23)c1F [PLX-4720]	%	10
O=C(Nc1ccc(-n2nc(-c3cccnc3)cc2C(F)(F)F)cn1)c1ccc(-c2ccccc2)c(F)c1 [BI 2049]	%	4
C=C1/C(=C\C=C2/CCC[C@]3(C)[C@@H]([C@H](C)/C=C/[C@H](C)C(C)C)CC[C@@H]23)C[C@@H](O)C[C@@H]1O [DOXERCALCIFEROL]	%	1
O=C(Cc1ccc(-c2ccc(OCCN3CCOCC3)cc2)cn1)NCc1ccccc1 [TIRBANIBULIN]	%	10
Cc1ccc2nc(NCCN)c3ncc(C)n3c2c1.O=C(O)C(F)(F)F.O=C(O)C(F)(F)F	%	15
Cc1cn(-c2cc(NC(=O)c3ccc(C)c(Nc4nccc(-c5cccnc5)n4)c3)cc(C(F)(F)F)c2)cn1 [NILOTINIB]	%	1
CCn1cc(-c2ccnc3[nH]c(-c4cccc(CN(C)C)c4)cc23)c(-c2ccc(NC(=O)N(C)C)cc2)n1 [GSK-1070916]	%	3

Provenance of the data: ChEMBL document CHEMBL4689842
